# Emax listing for each entry below
Target: 5-HT2A receptor (Homo sapiens, UniProt P28223)
Sequence (P28223 whole entry): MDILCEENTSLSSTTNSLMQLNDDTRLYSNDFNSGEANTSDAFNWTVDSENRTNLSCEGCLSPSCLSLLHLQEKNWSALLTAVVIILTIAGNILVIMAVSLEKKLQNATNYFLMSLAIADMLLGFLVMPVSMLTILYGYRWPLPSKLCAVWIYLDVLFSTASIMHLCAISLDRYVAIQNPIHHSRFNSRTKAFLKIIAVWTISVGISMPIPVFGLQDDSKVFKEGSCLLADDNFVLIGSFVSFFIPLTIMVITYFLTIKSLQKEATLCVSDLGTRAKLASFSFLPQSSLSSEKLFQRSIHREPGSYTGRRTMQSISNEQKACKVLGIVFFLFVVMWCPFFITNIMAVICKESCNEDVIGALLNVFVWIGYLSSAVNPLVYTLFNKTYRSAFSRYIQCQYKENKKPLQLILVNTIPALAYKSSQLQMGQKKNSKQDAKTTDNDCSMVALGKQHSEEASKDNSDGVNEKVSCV
Assay: cell-based
Format: cell-based
Design: expressed in transfected cells; host or cells: HEK293, stably transfected
Details: HEK293, agonist, Ca2+ flux, HEK293, max dose; read-out: 5-HT2A % Act @ Max Dose

Compound: CCN(CC)C(=O)[C@@H]1C=C2c3cccc4[nH]cc(c34)C[C@H]2N(CCC(F)(F)F)C1 [Compound 12]
Emax (%): 78.7
--
Compound: CCC[C@@H](C)NC(=O)[C@@H]1C=C2c3cccc4[nH]c(Br)c(c34)C[C@H]2N(C)C1 [Compound 45]
Emax (%): 22.3
--
Compound: CC[C@@H](C)NC(=O)[C@@H]1C=C2c3cccc4[nH]cc(c34)C[C@H]2N(CCC(F)(F)F)C1 [Compound 40]
Emax (%): 45.1
--
Compound: CCCN1C[C@@H](C(=O)N[C@H](C)CC)C=C2c3cccc4[nH]cc(c34)C[C@H]21 [Compound 3a]
Emax (%): 92
--
Compound: CCN(CC)C(=O)[C@@H]1C=C2c3cccc4[nH]cc(c34)C[C@H]2N(Cc2ccc(F)c(F)c2)C1 [Compound 54]
Emax (%): 59.2
--
Compound: CCN(C)C(=O)[C@@H]1C=C2c3cccc4[nH]cc(c34)C[C@H]2N(Cc2ccccc2)C1 [Compound 85]
Emax (%): 60.6
--
Compound: CCN(CC)C(=O)[C@@H]1C=C2c3cccc4[nH]cc(c34)C[C@H]2N(Cc2cccc(C)c2)C1 [Compound 98]
Emax (%): 76.5
--
Compound: CCN(CC)C(=O)[C@H]1C=C2c3cccc4[nH]cc(c34)C[C@H]2N(CC2CCCC2)C1 [Compound 90a]
Emax (%): 25.7
--
Compound: CC[C@@H](C)NC(=O)[C@@H]1C=C2c3cccc4[nH]cc(c34)C[C@H]2N(C)C1 [Int8]
Emax (%): 96.2
--
Compound: CC[C@@H](C)NC(=O)[C@@H]1C=C2c3cccc4[nH]cc(c34)C[C@H]2N(CC)C1 [Compound 5]
Emax (%): 103
--
Compound: CCN(CC)C(=O)[C@@H]1C=C2c3cccc4[nH]c(Br)c(c34)C[C@H]2N(CCC(F)(F)F)C1 [Compound 42]
Emax (%): 8.29
--
Compound: CCN(CC)C(=O)[C@@H]1C=C2c3cccc4[nH]cc(c34)C[C@H]2N(CCF)C1 [Compound 39]
Emax (%): 95.5
--
Compound: CCC(CC)NC(=O)[C@@H]1C=C2c3cccc4[nH]cc(c34)C[C@H]2N(C)C1 [Int14]
Emax (%): 93.3
--
Compound: CCN(CC)C(=O)[C@@H]1C=C2c3cccc4c3C(CN4)C[C@H]2N(C)C1 (mixture of isomers) [Compound 37]
Emax (%): 76.4
--
Compound: CCCN1C[C@H](C(=O)N2[C@@H](C)C[C@@H]2C)C=C2c3cccc4[nH]c(Br)c(c34)C[C@H]21 [Compound 47]
Emax (%): 57
